Read-out: Tissue Factor, F3 (gene 2152)
Experimental details: BSK_LPS_TissueFactor: BioMAP Diversity Plus: LPS Assay for Tissue Factor Biomarker Activity (AID 2283084)
Applied conditions: primary human HUVEC with PBMC; actives raise or lower the signal
Calls of active or inactive are those of the source. How the source made its calls: active means hit-call score of the fitted dose curve at least 0.9, where 1 is the maximum; inactive means score below 0.9.
Outcome measure: AC50

See these solved cases before continuing.
1. CCN(CC)C(=O)c1cc(S(=O)(=O)Cc2ccccc2)c(N2CCC(c3ccccc3)CC2)cc1N(CC)CCN(C)C: 33.5 µM (active)
2. O=c1[nH]sc2ccccc12: 17.7 µM (active)
3. CN(C)C(=O)C1(N2CCCCC2)CCN(CC[C@@]2(c3ccc(Cl)c(Cl)c3)CN(C(=O)c3ccccc3)CCO2)CC1: 31.2 µM (active)
4. COc1cc(C(=O)NC2CCN(C)CC2)ccc1Nc1ncc2c(n1)N(C1CCCC1)CC(F)(F)C(=O)N2C: 12.1 µM (active)
5. COCC(C)OCC(C)OCC(C)O (stereo not drawn): inactive

Write down AC50 measured for item CCOC(=O)O[C@H](C)OC(=O)c1ccc2c(c1)cc(C(=O)NC1CCN(C(C)C)CC1)n2Cc1cc(-c2ccc(Cl)s2)on1
10.9 µM (active)

Write down AC50 measured for item O=C1CCC(C2CCCCC2)CC1
inactive

Write down AC50 measured for item Cc1cn([C@H]2C[C@H](N=[N+]=[N-])[C@@H](CO)O2)c(=O)[nH]c1=O
inactive
